Catalogue of RP-LC retention time readings, one per entry.
assay: gradient 5% acetonitrile 3 min, to 50% in 2 min, to 85% in 15 min, held 3 min, 100 µL/min; settings: column: Zorbax Extend-C18 2.1 x 50 mm; eluents: water / acetonitrile, 0.1% formic acid
Provide only the numeric value, understood in s.

Check out these entries, answers already filled in.
molecule | numeric_value
O=C(O)c1nnn(-c2ccc3c(c2)OCCO3)c1-c1ccccn1 | 640
CCOC(=O)c1ccc(NC(=O)Cn2nc3n(c2=O)CCCCC3)cc1 | 685
CCn1cc(S(=O)(=O)N2[C@H]3CC[C@@H]2c2cnc(-c4ccccc4)nc2C3)cn1 | 868
Cc1cccc(-c2nnc3ccc(Cl)nn23)c1 | 823
Cc1ccc(C)c(-c2coc(-c3ccc(NC(=O)NCc4ccccc4)cc3)n2)c1 | 1220
O=C(Nc1cccn2c(C3CCC3)nnc12)C1COc2ccccc2O1 (centres undefined) | 837
Cc1nnc2ccc(NC(=O)Nc3cccc(F)c3)cn12 | 677
COc1ccc(CNC(=O)Cc2nnc(-c3ccc4ncccc4c3)o2)cc1OC | 646
Cc1ccc(-c2noc(Cc3nnc(-c4ccc(C)c(C)c4)o3)n2)cc1C | 1230
O=C(Cn1cccc(-c2nc(-c3ccc(F)cc3)no2)c1=O)Nc1ccc2c(c1)OCCO2 | 832

Reported RP-LC retention time of CC1(C(=O)NCc2cccc(F)c2)CCCN(S(=O)(=O)c2ccc(F)cc2)C1 (centres undefined) : 948

Reported RP-LC retention time of CC(C)OCCCNC(=O)C(C)n1c(=O)c(C(F)(F)F)nc2ccccc21 (centres undefined) : 972

Reported RP-LC retention time of COc1ccc(C2NCCc3c2[nH]c2ccccc32)cc1O (centres undefined) : 582

Reported RP-LC retention time of CCc1cc(C(=O)Nc2cc(OC)cc(OC)c2)nc2cc(-c3ccco3)nn12 : 795

Reported RP-LC retention time of O=C(N[C@@H]1CN(c2ccncn2)C[C@H]1CO)C1CCCC1 : 550

Reported RP-LC retention time of Cc1[nH]c2ccc(F)cc2c1CCNCc1ccccn1 : 572

Reported RP-LC retention time of CCCn1cc(CCNC(=O)c2cc(F)ccc2Cl)c2cccnc21 : 795

Reported RP-LC retention time of COCCCNC(=O)Cc1c(C)n(C)c2nc(-c3ccccc3)nn2c1=O : 618

Reported RP-LC retention time of Cn1ccnc1C(=O)N1CCc2nn(CC3CC3)c(=O)n2CC1 : 565

====

assay: gradient 5% acetonitrile 3 min, to 50% in 2 min, to 85% in 15 min, held 3 min, 100 µL/min; details: column: Zorbax Extend-C18 2.1 x 50 mm; eluents: water / acetonitrile, 0.1% formic acid
Catalogue of RP-LC retention time readings, one per entry.
Please state the number and follow it with the unit.

Reported RP-LC retention time of Cc1ccc(-c2nnc(Cc3nc(-c4cccc(F)c4)no3)o2)cc1 : 1060 s

Reported RP-LC retention time of CCn1ccc(C(=O)NC2CCN(C3=NS(=O)(=O)C(c4ccc(F)cc4)=C3C)CC2)n1 : 777 s

====

assay: gradient 5% acetonitrile 3 min, to 50% in 2 min, to 85% in 15 min, held 3 min, 100 µL/min; details: column: Zorbax Extend-C18 2.1 x 50 mm; eluents: water / acetonitrile, 0.1% formic acid
measurement_type: RP-LC retention time (s)
Provide only the numeric value, understood in s.

molecule | quantity_unit | numeric_value
CCOc1ccccc1N1CCN(c2cc(C(=O)O)c3cc(NC(=O)C4CCCC4)ccc3n2)CC1 | s | 638

Reported RP-LC retention time of CCc1ccc(NC(=O)c2c(O)c3cccnc3n(-c3ccc(F)cc3)c2=O)cc1 : 1230

Reported RP-LC retention time of Cc1[nH]c(C(=O)N2CCCC(C(=O)NCCN3CCCCCC3)C2)c(C)c1C(=O)OC(C)C (stereo not given) : 654

Reported RP-LC retention time of COC(=O)N1CCc2ccc(Br)cc2C1C(=O)Nc1ccon1 (stereo not given) : 785

Reported RP-LC retention time of CCOC(=O)CNC(=O)NCC(c1cccnc1)c1c[nH]c2ccccc12 (stereo not given) : 598

====

assay: gradient 5% acetonitrile 3 min, to 50% in 2 min, to 85% in 15 min, held 3 min, 100 µL/min; conditions: column: Zorbax Extend-C18 2.1 x 50 mm; eluents: water / acetonitrile, 0.1% formic acid
Is RP-LC retention time at least 800 s? Then Condition met. If not, Condition not met.

Use the examples below as a reference point.
compound | label
Cc1ccc(CNC(=O)N2CCC3(CC2)NC(=O)c2ccccc2O3)cc1 | Condition not met
O=C(NCCn1c(CCc2ccccc2)nc2cccnc21)c1cccs1 | Condition not met
CCOc1ccc2c(n1)CCN(C(=O)Nc1ccccc1OCC)C2 | Condition met
CCc1noc(-c2ccc(-n3cnc(C(=O)NC(C)CC)c3)nc2)n1 (stereo not given) | Condition met

Field: next compound
input: Is it the case that CN1c2cc(Cl)ccc2C(=O)NC12CCN(C(=O)Nc1cccc(F)c1)CC2 has RP-LC retention time reaching or exceeding 800 s?
output: Condition met

====

experiment: gradient 5% acetonitrile 3 min, to 50% in 2 min, to 85% in 15 min, held 3 min, 100 µL/min; details: column: Zorbax Extend-C18 2.1 x 50 mm; eluents: water / acetonitrile, 0.1% formic acid
Field 'label' (enum: TRUE / FALSE). Set to TRUE when RP-LC retention time is strictly under 800 s; else FALSE.

Use the examples below as a reference point.
molecule | label
O=C(C1CC(=O)N(c2ccc3c(c2)CCN3C(=O)C2CC2)C1)N1CCOCC1 (stereo not given) | TRUE
CSc1ccc(-c2nc3cnccn3c2NC2CCCCC2)cc1 | FALSE
O=C(O)c1cnc(NCc2cccnc2)nc1-c1ccc(Cl)cc1 | TRUE
O=C(Cc1csc(Nc2cccc(Cl)c2)n1)NCc1cccnc1 | TRUE

input: Just wondering, is RP-LC retention time of CCOc1ccc(C(C)NC(=O)C2CCCN(c3cnc4nccnc4c3)C2)cc1 (stereo not given) below 800 s?
output: TRUE

input: Just wondering, is RP-LC retention time of Cc1cc(Cl)ccc1NC(=O)Cn1cccc1-c1nnc(C2CCC2)o1 below 800 s?
output: FALSE

input: Just wondering, is RP-LC retention time of Cc1cc(C(=O)Nc2ccccc2F)nc2cc(-c3cccs3)nn12 below 800 s?
output: FALSE

====

test: gradient 5% acetonitrile 3 min, to 50% in 2 min, to 85% in 15 min, held 3 min, 100 µL/min; details: column: Zorbax Extend-C18 2.1 x 50 mm; eluents: water / acetonitrile, 0.1% formic acid
Catalogue of RP-LC retention time readings, one per entry.
Provide only the numeric value, understood in s.

Reported RP-LC retention time of CC(NC(=O)C(=O)N1CCOCC1)C(c1cccs1)N1CCN(c2ccccc2F)CC1 (stereo not given) : 692

Reported RP-LC retention time of COc1c(C(=O)NC2CC2)sc2cc(Cl)ccc12 : 965

Reported RP-LC retention time of C[C@H]1CN(C(=O)Cc2ccccc2F)C[C@@H]1c1nc(-c2cccnc2)no1 : 795

Reported RP-LC retention time of c1ccc(-c2nc(-c3ccnc(N4CCCC4)c3)no2)nc1 : 594

Reported RP-LC retention time of COCCN1C(=O)c2ccccc2C(C(=O)NCCCOC(C)C)C12CCCCC2 (stereo not given) : 756

====

experiment: gradient 5% acetonitrile 3 min, to 50% in 2 min, to 85% in 15 min, held 3 min, 100 µL/min; settings: column: Zorbax Extend-C18 2.1 x 50 mm; eluents: water / acetonitrile, 0.1% formic acid
measurement_type: RP-LC retention time (s)
Provide only the numeric value, understood in s.

Check out these entries, answers already filled in.
molecule | numeric_value
O=C(NCCn1cc(SCC(=O)N2CCOCC2)c2ccccc21)c1ccc(F)cc1 | 733
Cc1ccc(NC(=O)N2CCC(N3CCN(Cc4ccc(F)cc4)C(=O)C3=O)CC2)cc1C | 774
CCC(CO)NCc1ccc(-c2ccccc2)o1 (stereo not given) | 624
O=C(Cn1cnc2c(sc3nc(-c4ccccc4)ccc32)c1=O)Nc1ccc(F)cc1Cl | 1050
CCOc1ccccc1NC(=O)N1CC(N(CC)C2CCOCC2)C1 | 561
O=C(CC1CCOCC1)N1CCN(C(=O)c2ccco2)CC1 | 612
O=C(NCCc1c[nH]c2ccc(F)cc12)c1ccc(F)cc1-n1cnnn1 | 756
O=C(Cn1nc2n(c1=O)CCCC2)NCCCc1ccccc1 | 709
Cc1ccc(NC(=O)Cn2c(=O)n(-c3ccccc3)c3ncccc32)c(C)c1 | 848

Reported RP-LC retention time of CC1CCN(c2nc3c(c(=O)n(Cc4ccccc4Cl)c(=O)n3C)n2C)CC1 : 1170

====

experiment: gradient 5% acetonitrile 3 min, to 50% in 2 min, to 85% in 15 min, held 3 min, 100 µL/min; settings: column: Zorbax Extend-C18 2.1 x 50 mm; eluents: water / acetonitrile, 0.1% formic acid
measurement_type: RP-LC retention time (s)
Provide only the numeric value, understood in s.

Check out these entries, answers already filled in.
compound | RP-LC retention time (s)
Cc1ccc(C)c(-c2cc3c4nn(CC(=O)NC5CCCC5)c(=O)n4ccn3n2)c1 | 909
Cc1nc(-c2ccc(N3CCN(C(=O)c4nccc5ccccc45)CC3)nc2)sc1C | 867
Cc1cc(C(=O)N2CCCC(c3nnc(-c4cccs4)o3)C2)no1 (centres undefined) | 694

Now take the following compound into account.
Reported RP-LC retention time of CCC(=O)N1CCc2sc(C(=O)NCc3ccc(Cl)cc3)cc2C1 : 802
